# TARGET ENTITY: T1, EGF1-4 domains of human Protein S with C-terminal HPC4 tag (human, UniProt P07225 114-286, partial hydroxylation of Asn or Asp in the EGF domains (detected by MS))
# T1 construct: also called hEGF1-4; human Protein S EGF1-4
# T1 sequence: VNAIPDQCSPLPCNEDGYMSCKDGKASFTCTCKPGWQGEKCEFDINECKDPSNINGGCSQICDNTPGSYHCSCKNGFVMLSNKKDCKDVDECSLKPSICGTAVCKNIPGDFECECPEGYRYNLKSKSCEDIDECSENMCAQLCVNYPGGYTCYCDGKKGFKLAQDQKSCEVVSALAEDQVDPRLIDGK
# PROCEDURE DETAILS: ELISA, calcium-free TBS;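 also: binding of mouse antibodies detected by ELISA with an HRP-conjugated goat anti-mouse IgG secondary and TMB substrate development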
READOUT LABEL: binding result

BINDER	READOUT LABEL	RESULT
M-hProtS-2F82A1 monoclonal antibody (antibody, V domains shown, Mouse IgG1, kappa; also called mAb 0017) VH: QVQLQQPGTELVRPGASVKLSCKASGYTFTSYWMNWVQQRPEQGLEWIGRIDPYDTETHYNQKFEDKAILTVDKSSSTAYMQLSSLTSEDSAVYYCARWAGSSYAMDYWGQGTSVTVSS VL: QIVLTQSPALMSASPGERVTMTCSASSSVSYMYWYQQKPRSSPKPWIYSTSNLASGVPARFSGSGSGTSYSLTISSMEAEDAATYYCQQWSSNPYTFGGGTKLEIKR	binding result	binds
M-hProtS-6F128A2 monoclonal antibody (antibody, mouse IgG1, V domains shown, Tested as antibody purified from hybridoma supernatant; mouse IgG1, kappa) VL: SIVMTQTPKFLLVSAGDRVTITCKASQSVSNDVAWYQQKPGQSPKLLIYYASNRYTGVPDRFTGSGYGTDFTFTISTVQAEDLAVYFCQQDYSSPYTFGGGTKLEIKR V domain: QVQLQQPGAELVRPGASVKLSCKASGYTFTSYWINWVKQRPEQGLEWIGRIDPYDSETHYNQKFKDKAILTVDKSSSTAYMQLSSLTSEDSAVYYCARWGGSGYAMDYWGQGTSATVSS	binding result	binds
M-hProtS-3F62A5 monoclonal antibody (antibody, mouse IgG1, V domains shown, Purified from hybridoma supernatant; mouse IgG1, kappa) VH: EVLLQQSGPELVKPGASVKITCKASGYTFTDYNMDWVKQSHGKSLEWIGDIDPNNGGTIYNQEFTGKATLTVDTSSSTAYMELRSLTSEDTAVYYCVRSEIFTTAPDYGVDYWGQGTSVTVSS VL: ENVLTQSPAIMSASPGEKVTMTCRASSSVSSSYLHWYRQKSGASPKLWIYSTSNLASGVPARFSGSGSGTSYSLTISRVEAEDAATYYCQQYSGYPRTFGGGTKVEIKR	binding result	binds
